Let's look at some binders and their measured EC50.
# System name: T1, biotin-labeled human PD-1 Fc protein (human, biotin-labeled (site not stated))
# T1 construct: also called PD-1-Fc-biotin
# T1 sequence (chain, as listed by the source limits assumed): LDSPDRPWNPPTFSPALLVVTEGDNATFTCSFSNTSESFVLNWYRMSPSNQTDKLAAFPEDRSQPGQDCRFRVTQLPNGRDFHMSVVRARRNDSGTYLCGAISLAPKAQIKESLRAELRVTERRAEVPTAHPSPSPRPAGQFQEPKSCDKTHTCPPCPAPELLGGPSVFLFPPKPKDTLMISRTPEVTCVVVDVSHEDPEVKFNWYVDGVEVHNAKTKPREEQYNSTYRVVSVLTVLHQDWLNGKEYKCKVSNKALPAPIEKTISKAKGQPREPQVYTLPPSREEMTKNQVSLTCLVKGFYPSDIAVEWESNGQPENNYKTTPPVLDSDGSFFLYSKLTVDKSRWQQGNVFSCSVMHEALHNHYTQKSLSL
# Test details: capture ELISA, antibody captured on plate, biotin-labeled human PD-1 Fc in solution
Numbers only here, please. The scale is ng/mL.

Give its EC50 value. Item: chimeric D2A4 antibody (antibody, human IgG1, kappa, V domains shown, Mouse variable domains cloned in frame to human IgG1 and kappa constant regions; also called chD2A4; ChD2A4) VH: EVKLVESGGGLVKPGGSLKLSCAASGFTFSSYTMSWVRQTPAKRLEWVATISGGGSNTYYPDSVKGRFTISRDNARNTLYLQMSSLRSEDTAMYYCARQAFYSNYWYFDVWGAGTTVTVSS VL: DIQMTQSPASQSASLGESVTITCLASQTIGTWLAWYQQTPGKSPQLLIYAATSLADGVPSRFSGSGSGTKFSFKISSLQAEDFASYYCQQVSSIPWTFGGGTKLEIRR
0.681

Same for huD2A4-V4 (antibody, human IgG1, kappa, V domains shown, Humanized D2A4, human IgG1/kappa) VH: EVQLVESGGGLVQPGGSLRLSCAASGFTFSSYTMSWVRQAPGKGLEWVATISGGGSNTYYPDSVKGRFTISRDNSKNTLYLQMNSLRAEDTAVYYCARQAFYSNYWYFDVWGAGTTVTVSS VL: DIQMTQSPSSVSASVGDRVTITCLASQTIGTWLAWYQQKPGKAPKLLIYAATSLADGVPSRFSGSGSGTDFTLTISSLQPEDFATYYCQQVSSIPWTFGGGTKVEIKR
0.349

Same for Nivolumab (OPDIVO®) (antibody, V domains shown) VH: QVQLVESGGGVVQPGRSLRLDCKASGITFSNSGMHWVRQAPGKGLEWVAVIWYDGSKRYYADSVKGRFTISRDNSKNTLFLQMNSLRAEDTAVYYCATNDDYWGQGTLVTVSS VL: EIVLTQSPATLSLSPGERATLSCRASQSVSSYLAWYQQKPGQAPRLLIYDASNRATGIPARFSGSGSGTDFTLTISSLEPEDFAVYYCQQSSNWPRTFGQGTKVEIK
0.351

Lab note: next binder to report on.
Give its EC50 value. Item: mouse anti-PD-1 monoclonal antibody D2A4 (antibody, V domains shown, Mouse antibody purified from a hybridoma; also called Mouse D2A4; mouse D2A4) VH: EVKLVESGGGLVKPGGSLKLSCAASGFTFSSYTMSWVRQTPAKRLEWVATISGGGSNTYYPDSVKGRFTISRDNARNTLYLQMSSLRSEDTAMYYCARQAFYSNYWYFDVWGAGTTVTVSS VL: DIQMTQSPASQSASLGESVTITCLASQTIGTWLAWYQQTPGKSPQLLIYAATSLADGVPSRFSGSGSGTKFSFKISSLQAEDFASYYCQQVSSIPWTFGGGTKLEIR
0.281
